# tested_on: KDM4C (Homo sapiens)
# Construct: Full length
# Sequence (Q9H3R0 whole entry): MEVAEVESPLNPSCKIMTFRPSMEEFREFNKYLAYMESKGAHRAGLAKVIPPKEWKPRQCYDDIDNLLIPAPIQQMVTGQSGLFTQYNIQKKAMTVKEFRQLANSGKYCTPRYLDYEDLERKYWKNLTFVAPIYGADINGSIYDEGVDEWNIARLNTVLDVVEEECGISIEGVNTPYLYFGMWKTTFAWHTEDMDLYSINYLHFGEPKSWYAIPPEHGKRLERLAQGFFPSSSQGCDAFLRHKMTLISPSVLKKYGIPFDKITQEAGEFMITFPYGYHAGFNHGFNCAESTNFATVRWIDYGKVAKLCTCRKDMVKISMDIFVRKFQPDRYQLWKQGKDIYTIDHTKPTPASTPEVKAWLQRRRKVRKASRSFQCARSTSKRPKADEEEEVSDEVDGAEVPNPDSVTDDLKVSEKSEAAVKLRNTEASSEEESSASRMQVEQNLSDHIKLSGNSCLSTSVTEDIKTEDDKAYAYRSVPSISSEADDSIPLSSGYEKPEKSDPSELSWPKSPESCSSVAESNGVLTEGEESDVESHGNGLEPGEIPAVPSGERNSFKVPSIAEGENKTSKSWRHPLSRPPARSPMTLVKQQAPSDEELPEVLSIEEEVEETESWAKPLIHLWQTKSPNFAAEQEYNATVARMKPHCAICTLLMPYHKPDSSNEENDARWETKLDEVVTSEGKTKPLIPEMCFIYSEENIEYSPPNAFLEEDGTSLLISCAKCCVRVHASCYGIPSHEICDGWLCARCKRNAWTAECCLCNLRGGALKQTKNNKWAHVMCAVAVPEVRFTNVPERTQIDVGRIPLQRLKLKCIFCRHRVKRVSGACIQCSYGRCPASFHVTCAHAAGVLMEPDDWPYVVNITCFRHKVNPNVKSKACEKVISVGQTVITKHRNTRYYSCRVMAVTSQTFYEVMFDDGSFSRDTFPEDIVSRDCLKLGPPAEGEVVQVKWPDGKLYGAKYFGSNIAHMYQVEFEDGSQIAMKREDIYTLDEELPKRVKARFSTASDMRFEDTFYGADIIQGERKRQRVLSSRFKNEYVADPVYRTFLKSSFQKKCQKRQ
# protocol_details: Histone lysine demethylase immunofluorescence assay, U2OS cells transfected with KDM4C
# assay_conditions: U2OS cells transfected with pCMVHA KDM4C; mark detected H3K9me3; 20 hours
pIC50: −log10 of the molar value.
pIC50 overview

Query: Observed pIC50 on KDM4C (Homo sapiens) for CN(C)C/C=C/CNCc1cc(/C=N/C2CC2)ccn1 , please.
Response: 5.60 to 6.60

Query: What is its pIC50 for KDM4C (Homo sapiens)? Entry: NCc1ccnc(CNCCCCN2CCC2)c1
Response: < 5.60

Query: Query pIC50 on KDM4C (Homo sapiens) for CC1CC1/N=C/c1ccnc(CNCC(=O)N(C)C)c1 (stereo not shown)
Response: 5.60 to 6.60

Query: Test system KDM4C (Homo sapiens); read-out pIC50; what value for CC(C#N)NCc1ccnc(CNCCCN(C)C)c1 (stereo not shown) ?
Response: < 5.60

Query: Request: pIC50, test system KDM4C (Homo sapiens), entry CCN(CC)CCCCNCc1cc(CN)ccn1
Response: 5.60 to 6.60

Query: Look up pIC50 with KDM4C (Homo sapiens) for this molecule: O=C(CNCc1cc(/C=N/C2CC2)ccn1)NC1CCN(Cc2ccccc2)C1 (stereo not shown)
Response: < 5.60
